# Test system: OVCAR-8 ovarian
# Test Description: NCI-60 one-dose screen, 48 h
# Study Conditions: 10 µM unless noted
This is part of a sample that, as a whole, favours compounds with a hit. Of some 83,000 tested, about 20% had one in any assay. The source made the active and inactive calls. How the source made its calls: active means growth percent below 10; inactive means the rest.
Respond using exactly one of the listed classes: yes = active, no = inactive

In [3]: df
Out[3]:
                                   compound  assigned_class
0  COc1cc2c(Oc3ccc4[nH]c(C)cc4c3F)ncnc2cc1OCCCN1CCCC1              no

Now look at this entry.
Exam item: Given `COc1cc(OC)c(C(=O)/C=C/c2cc3c(cc2OCc2ccccc2)OC(C)(C)CC3)cc1CC=C(C)C` , state the outcome it received in this test.
Marked response: yes

---

# Tested on: CAKI-1 renal
# Test Description: NCI-60 one-dose screen, 48 h
# Study Conditions: 10 µM unless noted
Compounds without any hit were thinned out: in the full panel of roughly 83,000, 20% have a hit. The source made the active and inactive calls. Rule for the calls: active = growth percent below 10; inactive = the rest.
Respond using exactly one of the listed classes: active, inactive

>>> df
                                   molecule  assay_system  assigned_class
0    O=C(NC[C@H](O)CO)c1ccncc1Nc1ccc(I)cc1F  CAKI-1 renal        inactive
1  CC(N)C(Cc1ccccc1)c1ccc(Cl)cc1 (stereo not given)  CAKI-1 renal        inactive
2  Cc1cc(Nc2nc(N[C@@H](C)c3ncc(F)cn3)ncc2Cl)n[nH]1  CAKI-1 renal        inactive
3  C[C@@H](Oc1cc(-c2cnn(C3CCNCC3)c2)cnc1N)c1c(Cl)ccc(F)c1Cl  CAKI-1 renal          active
4  C=CCN(/C=C1/C(=O)O[C@H](COC)[C@@]2(C)C1=C(O)C(=O)C1=C2[C@H](OC(C)=O)C[C@]2(C)C(=O)CC[C@@H]12)CC=C  CAKI-1 renal          active

Exam item: Given `Cc1ccc(N)cc1CN1C(=O)c2ccccc2C1=O` , state the outcome it received in this test.
Marked response: inactive

Exam item: Given `O=C(NOCCO)c1cc(CN2OCCCC2=O)c(F)c(F)c1Nc1ccc(I)cc1F` , state the outcome it received in this test.
Marked response: inactive

---

# System: A549/ATCC NSCLC
# Test Description: NCI-60 one-dose screen, 48 h
# Study Conditions: 10 µM unless noted
# Method: Growth inhibition of the A549/ATCC human Non-Small Cell Lung tumor cell line is measured as a screen for anti-cancer activity. Cells are grown in 96 well plates and exposed to the test compound for 48 hours. Compounds are tested at a single concentration, which is 10^-5 M for most compounds. The reported endpoint is percent growth (GI% or GIPRCNT), where numbers from 0 - 100% represent growth inhibition, and numbers from -100% - 0 represent cell death. […]
About 83,000 compounds went through this panel and 20% of them were active in at least one assay; those are over-represented in the sample as a whole. Calls of active or inactive are those of the source. How the source made its calls: active means growth percent below 10; inactive means the rest.
Respond using exactly one of the listed classes: t = active, f = inactive

>>> print(df.to_string())
                                   molecule  assigned_class
0  Cn1cnc(-c2cc3nccc(Oc4ccc(NC(=S)NC(=O)Cc5ccccc5)cc4F)c3s2)c1               f
1              CCCCCC(=O)OCc1ccc(Cl)c(Cl)c1               f
2  CCCNC(=O)c1cn2ncnc(Nc3cc(C(=O)NC4CC4)ccc3C)c2c1C               f

Exam item: Given `Cc1cc(C)n(CC(=O)Nc2ccc(-c3nc4ccccc4s3)cc2)n1` , state the outcome it received in this test.
Marked response: f

Exam item: Given COc1ccc(C2CC(=O)c3c(O)c(OC)c(OC)c(OC)c3O2)c(O)c1 (stereo not given) , state the outcome it received in this test.
Marked response: f

Exam item: Given `CC(C)n1c(NCCc2ccc(O)c(O)c2)nc2c1c(=O)n(C)c(=O)n2C` , state the outcome it received in this test.
Marked response: f

Exam item: Given `Cn1ncc(Cl)c1-c1cc(C(=O)N[C@H](CN)Cc2cccc(F)c2)sc1Cl` , state the outcome it received in this test.
Marked response: f

Exam item: Given `CNC(=O)c1c(C)oc2cc(Oc3ncnc4cc(OC)c(OC)cc34)ccc12` , state the outcome it received in this test.
Marked response: f

Exam item: Given O=CC(OC(=O)c1ccccc1)C(OC(=O)c1ccccc1)C(COC(c1ccccc1)(c1ccccc1)c1ccccc1)OC(=O)c1ccccc1 (stereo not given) , state the outcome it received in this test.
Marked response: f

---

# System: OVCAR-3 ovarian
# Test Description: NCI-60 one-dose screen, 48 h (100 = growth as untreated, 0 = no growth, -100 = all killed)
# Study Conditions: 10 µM unless noted
# Method: Growth inhibition of the OVCAR-3 human tumor cell line is measured as a screen for anti-cancer activity. Cells are grown in 96 well plates and exposed to the test compound for 48 hours. Compounds are tested at a single concentration, which is 10^-5 M for most compounds. The reported endpoint is percent growth (GI% or GIPRCNT), where numbers from 0 - 100% represent growth inhibition, and numbers from -100% - 0 represent cell death. For example, a value of 40 represents 60% growth inhibition. […]
This is part of a sample that, as a whole, favours compounds with a hit. Of some 83,000 tested, about 20% had one in any assay.
Recorded Endpoint: growth (%)
Numeric answer only, unit % assumed.

These recorded examples may help you get a feel for the data.
                              smiles_string  recorded_endpoint  unit_annotation  result
0  CS(=O)(=O)N1CCN(Cc2cc3nc(-c4cccc5[nH]ncc45)nc(N4CCOCC4)c3s2)CC1             growth                %    14.5
1  Cc1nc(-c2cn3c(n2)-c2ccc(-c4cnn(C(C)(C)C(N)=O)c4)cc2OCC3)n(C(C)C)n1             growth                %    24.5
2  CC[C@H](CO)Nc1nc(NCc2ccccc2)c2ncn(C(C)C)c2n1             growth                %    65.2
3  COc1cc(Nc2ncc3c(n2)-c2ccc(Cl)cc2C(c2c(F)cccc2OC)=NC3)ccc1C(=O)O             growth                %    72.9
4  Nc1cc(C(F)(F)F)c(-c2cc(N3CCOCC3)nc(N3CCOCC3)n2)cn1             growth                %   -9.69

Exam item: Provide one value: measured growth of `O=C(c1ccc(F)c(F)c1Nc1ccc(I)cc1F)N1CC(O)([C@@H]2CCCCN2)C1`
Marked response: 58.7

Exam item: Provide one value: measured growth of `CCNCCNc1cc(-c2ccc(Cl)c(Cl)c2)c(C#N)c2nc3ccccc3n12`
Marked response: -94

Exam item: Provide one value: measured growth of `N#Cc1c(NC(=O)c2cccs2)[n+]([O-])c2ccc(F)cc2[n+]1[O-]`
Marked response: 98.3

Exam item: Provide one value: measured growth of `O=C(Nc1cccc([N+](=O)[O-])c1)c1ccc(Cl)c(Cl)c1`
Marked response: 53.8

---

# Tested on: SF-268 CNS
# Test Description: NCI-60 one-dose screen, 48 h (100 = growth as untreated, 0 = no growth, -100 = all killed)
# Study Conditions: 10 µM unless noted
The panel holds about 83,000 compounds, 20% with a hit somewhere; the sample as a whole holds those more often.
Binning of growth into classes: I (below 20%), II (20% to below 80%), III (80% or more)

                                   compound  assigned_class
0  NS(=O)(=O)c1ccc(CCN2C(=O)/C(=C\c3ccc(Cl)cc3)C=C2c2ccc3ccccc3c2)cc1             III

Exam item: Class (by measured growth) for `CCN1CCN(c2nc(C)cc(N(CCCNc3ccnc4cc(Cl)ccc34)Cc3ccc4c(c3)OCO4)n2)CC1`
Marked response: I

Exam item: Class (by measured growth) for CC1(/C=N/NC(N)=S)NC(=O)NC1=O (stereo not given)
Marked response: III

Exam item: Class (by measured growth) for `O=C(NC1CCNCC1)c1[nH]ncc1NC(=O)c1c(Cl)cccc1Cl`
Marked response: I

Exam item: Class (by measured growth) for `C[C@@]1(C(=O)Nc2ccc(F)nc2)CCCN1c1nc(Nc2cc(C3CC3)[nH]n2)c2cccn2n1`
Marked response: I

Exam item: Class (by measured growth) for `CCc1nc2cc(/C=C/C(=O)NO)ccc2c(=O)n1CCc1ccc(OC)cc1`
Marked response: II

---

# Test system: TK-10 renal
# Test Description: NCI-60 one-dose screen, 48 h (100 = growth as untreated, 0 = no growth, -100 = all killed)
# Study Conditions: 10 µM unless noted
# Protocol: Growth inhibition of the TK-10 human tumor cell line is measured as a screen for anti-cancer activity. Cells are grown in 96 well plates and exposed to the test compound for 48 hours. Compounds are tested at a single concentration, which is 10^-5 M for most compounds. The reported endpoint is percent growth (GI% or GIPRCNT), where numbers from 0 - 100% represent growth inhibition, and numbers from -100% - 0 represent cell death. For example, a value of 40 represents 60% growth inhibition. […]
Compounds without any hit were thinned out: in the full panel of roughly 83,000, 20% have a hit.
Decision: growth beneath 20% gives rule met; growth meeting or exceeding 20% gives rule not met.

Consider the following illustrative entries.
>>> print(df.to_string())
                                   molecule  assigned_class
0  COc1cc(-c2cc(-c3ccc(Nc4ccnc5cc(Cl)ccc45)cc3)nc(N3CCOCC3)n2)cc(OC)c1OC        rule met
1  CCN1CCN(Cc2ccc(Cc3ncc(F)c(-c4cc(F)c5nc(C)n(C(C)C)c5c4)n3)nc2)CC1    rule not met
2  CCCCOc1nc2cc(Cl)ccc2cc1/C=C/c1cc(/C=C/c2cc3ccc(Cl)cc3nc2OCCCC)n(-c2ccccc2)n1    rule not met
3  NC(=O)Nc1cc(-c2cccc(F)c2)sc1C(=O)N[C@H]1CCCNC1        rule met
4  CC(C)[C@@H]1CC[C@]2(CO2)[C@@H]2C(=O)OCC(C(=O)O)=C[C@H]21        rule met

Exam item: Please indicate whether the reported growth of Cc1cccc(C)c1N1C(c2ccccc2)=NNC12C=CC(=O)c1c(O)cccc12 (centres undefined) is strictly below 20%.
Marked response: rule not met

Exam item: Please indicate whether the reported growth of `CNC(=O)c1nn(C)c2c1C(C)(C)Cc1cnc(Nc3ccc(N4CCN(C)CC4)cc3)nc1-2` is strictly below 20%.
Marked response: rule met
